# measurement_target: S. aureus Alpha hemolysin (Staphylococcus aureus, UniProt P09616)
# experimental_details: cell-based
# measurement_conditions: A549-LDH Assay activity
Consider the following compounds; for each one, report its EC50.

q: EC50 lookup needed for Cc1nc2ccc(-c3ccc(NS(=O)(=O)c4cc5[nH]c(=O)c(=O)[nH]c5cc4C)cc3Cl)cc2[nH]1 , thanks.
a: < 30 nM

q: EC50 lookup needed for Cc1cc2[nH]c(=O)c(=O)[nH]c2cc1S(=O)(=O)Nc1ccc(-c2ccc3c(c2)NC(=O)CO3)c(C(F)(F)F)c1 , thanks.
a: 30 to 100 nM

q: EC50 lookup needed for Cc1cc2[nH]c(=O)c(=O)[nH]c2cc1S(=O)(=O)Nc1ccc(-c2ccc3c(c2)NC(=O)C3)c(Cl)c1 , thanks.
a: 30 to 100 nM

q: EC50 lookup needed for Cc1cc2[nH]c(=O)c(=O)[nH]c2cc1S(=O)(=O)Nc1ccc(-c2cc(F)cc(C(N)=O)c2)c(Cl)c1 , thanks.
a: < 30 nM

q: EC50 lookup needed for Cc1cc2[nH]c(=O)c(=O)[nH]c2cc1S(=O)(=O)Nc1ccc(-c2ccccc2)cc1 , thanks.
a: 30 to 100 nM

q: EC50 lookup needed for O=c1[nH]c2cc(OC(F)(F)F)c(S(=O)(=O)Nc3ccc(-c4ccc(F)cc4)c(Cl)c3)cc2[nH]c1=O , thanks.
a: 1000 to 6000 nM

q: EC50 lookup needed for Cc1cc2[nH]c(=O)c(=O)[nH]c2cc1S(=O)(=O)Nc1ccc(-c2ccccc2C(=O)O)cc1 , thanks.
a: 1000 to 6000 nM

q: EC50 lookup needed for CCc1ccccc1-c1c(C)cc(NS(=O)(=O)c2cc3[nH]c(=O)c(=O)[nH]c3cc2C)cc1C , thanks.
a: 30 to 100 nM

q: EC50 lookup needed for Cc1cc(NS(=O)(=O)c2cc3[nH]c(=O)c(=O)[nH]c3cc2C)ccc1C(F)(F)F , thanks.
a: 100 to 1000 nM

q: EC50 lookup needed for Cc1nc2cc(-c3ncc(NS(=O)(=O)c4cc5[nH]c(=O)c(=O)[nH]c5cc4C)cc3Cl)ccc2o1 , thanks.
a: 30 to 100 nM

q: EC50 lookup needed for Cc1cc2[nH]c(=O)c(=O)[nH]c2cc1S(=O)(=O)Nc1ccc(-c2ccc(C(N)=O)cc2)c(Cl)c1 , thanks.
a: 100 to 1000 nM

q: EC50 lookup needed for Cc1ccc(-c2ccc(NS(=O)(=O)c3cc4[nH]c(=O)c(=O)[nH]c4cc3C)cc2Cl)cc1 , thanks.
a: 100 to 1000 nM

q: EC50 lookup needed for CCO/C=C/c1ccc(NS(=O)(=O)c2cc3[nH]c(=O)c(=O)[nH]c3cc2C)cc1Cl , thanks.
a: 1000 to 6000 nM

q: EC50 lookup needed for CCc1ccc(NS(=O)(=O)c2cc3[nH]c(=O)c(=O)[nH]c3cc2C)cc1 , thanks.
a: < 30 nM

q: EC50 lookup needed for O=c1[nH]c2cc(Cl)c(S(=O)(=O)Nc3ccc4ccccc4c3)cc2[nH]c1=O , thanks.
a: 100 to 1000 nM

---

quantity_measured: IC50

q: Please provide the recorded IC50 for Cc1cc2[nH]c(=O)c(=O)[nH]c2cc1S(=O)(=O)Nc1ccc(-c2ccccc2C(=O)O)cc1 , tested on hemolysin alpha from Staphylococcus aureus (Staphylococcus aureus, UniProt P09616).
Sequence (P09616 27-319 limits assumed): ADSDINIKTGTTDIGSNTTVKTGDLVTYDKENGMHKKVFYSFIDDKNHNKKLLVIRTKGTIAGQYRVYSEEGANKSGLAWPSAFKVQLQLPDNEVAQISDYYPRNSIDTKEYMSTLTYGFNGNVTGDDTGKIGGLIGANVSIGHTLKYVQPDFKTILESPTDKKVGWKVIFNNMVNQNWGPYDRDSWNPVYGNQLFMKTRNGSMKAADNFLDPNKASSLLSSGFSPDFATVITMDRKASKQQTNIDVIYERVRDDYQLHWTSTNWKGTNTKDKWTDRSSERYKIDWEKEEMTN
a: 1000 to 3500 nM

q: Please provide the recorded IC50 for Cc1cc2[nH]c(=O)c(=O)[nH]c2cc1S(=O)(=O)Nc1ccc(Br)c(Cl)c1 , tested on hemolysin alpha from Staphylococcus aureus (Staphylococcus aureus, UniProt P09616).
a: 100 to 1000 nM

q: Please provide the recorded IC50 for Cc1cc2[nH]c(=O)c(=O)[nH]c2cc1S(=O)(=O)Nc1ccc(C(C)C)cc1 , tested on hemolysin alpha from Staphylococcus aureus (Staphylococcus aureus, UniProt P09616).
a: 100 to 1000 nM

q: Please provide the recorded IC50 for Cc1cc2[nH]c(=O)c(=O)[nH]c2cc1S(=O)(=O)Nc1ccc2c(c1)CCC2 , tested on hemolysin alpha from Staphylococcus aureus (Staphylococcus aureus, UniProt P09616).
a: 100 to 1000 nM

q: Please provide the recorded IC50 for O=c1[nH]c2cc(Cl)c(S(=O)(=O)Nc3ccc(-c4ccc(F)c(Cl)c4)c(Cl)c3)cc2[nH]c1=O , tested on hemolysin alpha from Staphylococcus aureus (Staphylococcus aureus, UniProt P09616).
a: < 30 nM

q: Please provide the recorded IC50 for Cc1cc(C2CC2)ccc1NS(=O)(=O)c1cc2[nH]c(=O)c(=O)[nH]c2cc1C , tested on hemolysin alpha from Staphylococcus aureus (Staphylococcus aureus, UniProt P09616).
a: 100 to 1000 nM
